test system: PPARg:RXRa 90nM:30nM, anti-RXR (NR concentration 90 nM, RXRa partner concentration 30 nM); assay: PBM binding z-score (relative to random genomic background probes); higher = stronger binding; sequences stand for … in GC…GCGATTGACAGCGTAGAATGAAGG

Sequence record	Subject of test	PBM binding z-score
TAGCCTAGGTCATTCGGGGGCCAGTATAGAAAGC	PPARg:RXRa 90nM:30nM, anti-RXR (NR concentration 90 nM, RXRa partner concentration 30 nM)	3.17
CAAACTAGGTCACGAAAGGTGAAAGTCGAATGAC	PPARg:RXRa 90nM:30nM, anti-RXR (NR concentration 90 nM, RXRa partner concentration 30 nM)	7.8
AGTCAAAGTTCATGTAGGTAACGTAAGATATGCT	PPARg:RXRa 90nM:30nM, anti-RXR (NR concentration 90 nM, RXRa partner concentration 30 nM)	5.61
CCTTACGGGTCACTCCAGGTTATCGCATCGGAGT	PPARg:RXRa 90nM:30nM, anti-RXR (NR concentration 90 nM, RXRa partner concentration 30 nM)	2.38
CCTACTGGGACACGAAAGGTCATTGATTCAGTGA	PPARg:RXRa 90nM:30nM, anti-RXR (NR concentration 90 nM, RXRa partner concentration 30 nM)	4.34

----------
test system: VDR:RXRa (NR concentration 270 nM, RXRa partner concentration 90 nM); assay: PBM binding z-score (relative to random genomic background probes); higher = stronger binding; sequences stand for … in GC…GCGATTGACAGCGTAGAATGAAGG
Measured PBM binding z-score determines class: lowest: < 1; middle: ≥ 1 and < 2; highest: ≥ 2

Sequence record	Subject of test	Class name
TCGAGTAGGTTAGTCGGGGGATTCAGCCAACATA	VDR:RXRa (NR concentration 270 nM, RXRa partner concentration 90 nM)	lowest
AGAACGAGGGCAAGGAGTTGATAGCACGGGTGGC	VDR:RXRa (NR concentration 270 nM, RXRa partner concentration 90 nM)	highest
TCGAGTTGGTCAAAGGTCACACACTCGAAATGCG	VDR:RXRa (NR concentration 270 nM, RXRa partner concentration 90 nM)	highest
TCTAGCAGGCCAGAGGGTCACTAAAGAGGTACGG	VDR:RXRa (NR concentration 270 nM, RXRa partner concentration 90 nM)	middle
TTACCAAAGTGAAGGTCGTTGATCCCTCTGTAGA	VDR:RXRa (NR concentration 270 nM, RXRa partner concentration 90 nM)	lowest
TAGCCTAGGTCATTGGGCCCGTATAGTACGCATC	VDR:RXRa (NR concentration 270 nM, RXRa partner concentration 90 nM)	highest
TCATATAGTTAAATGCTAGGTGAAAGTCCGATCT	VDR:RXRa (NR concentration 270 nM, RXRa partner concentration 90 nM)	lowest
TCTGCTAGGTCAACGATGGACAGCTAATCTGCTA	VDR:RXRa (NR concentration 270 nM, RXRa partner concentration 90 nM)	middle
TTTGCTAGGTCAACGATGGTCAGCTAATCTGCTA	VDR:RXRa (NR concentration 270 nM, RXRa partner concentration 90 nM)	middle
GGAACGAGGGCATTAGAGTTGATAGCATGGCGAT	VDR:RXRa (NR concentration 270 nM, RXRa partner concentration 90 nM)	highest
CCTCGAAGGACAGAAGGTCAGAGCTGTCCGCTTT	VDR:RXRa (NR concentration 270 nM, RXRa partner concentration 90 nM)	lowest
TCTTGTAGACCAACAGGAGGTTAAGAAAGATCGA	VDR:RXRa (NR concentration 270 nM, RXRa partner concentration 90 nM)	lowest
TCTGGTTGGTCAAAGGTCACACACTCGAAATGCG	VDR:RXRa (NR concentration 270 nM, RXRa partner concentration 90 nM)	highest
ATACCAAGGTGATCGTGAGGTCGTTGTTACTAAC	VDR:RXRa (NR concentration 270 nM, RXRa partner concentration 90 nM)	highest
ACAGACAGGTGATTAAGGTAACTCAGGCTATCAT	VDR:RXRa (NR concentration 270 nM, RXRa partner concentration 90 nM)	lowest
TTACCAAGGTGAGCTGAGGGCGTTGATCCAACTC	VDR:RXRa (NR concentration 270 nM, RXRa partner concentration 90 nM)	middle
ACTAGCAGGCCAAGTATGGGTCACTCAAACAAAG	VDR:RXRa (NR concentration 270 nM, RXRa partner concentration 90 nM)	lowest
AGTCAAAGTTCAATAGGTAACGTAAGATTCAGCT	VDR:RXRa (NR concentration 270 nM, RXRa partner concentration 90 nM)	highest
TCTTGTAGATCAACAGGAGGTTAAGCAAGATCGA	VDR:RXRa (NR concentration 270 nM, RXRa partner concentration 90 nM)	lowest
TAGCCTAGGTCAGATCGGGCCATTATACGCTATA	VDR:RXRa (NR concentration 270 nM, RXRa partner concentration 90 nM)	middle
CCTATTAGTTGACCATAAGGGCAAACGAAGCTCG	VDR:RXRa (NR concentration 270 nM, RXRa partner concentration 90 nM)	lowest
TAGCCTAGGTCTTTGGGCCAGTATAGTACGCATC	VDR:RXRa (NR concentration 270 nM, RXRa partner concentration 90 nM)	lowest

----------
system: VDR homodimer (NR concentration 270 nM); test: PBM binding z-score (relative to random genomic background probes); higher = stronger binding; sequences stand for … in GC…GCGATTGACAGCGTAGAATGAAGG

Sequence record	PBM binding z-score
TCTGGGAGGACACGAAGGTCAGAGCTTTCCAGAG	1.35
AGAACGAGGGCACGCTGAGTTGTTAGCAGAGTAG	1.29
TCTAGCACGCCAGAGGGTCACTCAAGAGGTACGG	0.501
TAGCCTAGGTCATTCAGGGGCCAGTATCGAAAGC	1.48
CCGACTGGGGCAGAAAGGGTACCATACCATCCGG	-0.349
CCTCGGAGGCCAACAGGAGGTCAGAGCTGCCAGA	0.821
CGTCCAAGGTCATAGCAGGTCAGTGAAGACAGAT	3.76
AATACAGGGTCACTAGGCCAGACTAGGTACGAAT	2.17
GCTAGCAGGCCATGTGGGTCACTCAATGACGGGC	0.0438
CAAACTAGGTCAACGGAAGGTCAAAGTCCGCATG	3.65
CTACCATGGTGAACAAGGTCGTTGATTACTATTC	1.41
TCTTGTAGATCAAGCAGGTTAACAAAGCCTGAGT	0.178
GATACAGTGTCAGCTAGAGGCCAGAGTATGGAAA	-0.198
GATACACGGTCAGCTAGAGGCCAGAGTATGGAAA	-0.244
AGAATGAGGTTATACGTAGATCAGCGAAGAAAGT	0.803
ATCGAAAGGTCGTGAGGTGAGCATACAGAAAGGC	0.917
TCTTGTAGATCACGCAGGTTAAGAAAGCCTGAGT	-0.258
ATCTCTAGGTAACCAAGTTCAGCGAATGCCGAAC	2.79
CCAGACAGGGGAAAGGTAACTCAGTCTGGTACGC	-0.41
CCGACTGGGGCAAAGGTAACCATACTCAGTACGA	-0.353
GCGACTGCGGCATCAGCAGGTTACCATAACTTAA	-0.566
ATATGTAGGTTAGGTGGGGTCATTCAGACTAGGC	6.4
CCAGACAGGTGAGAAGGTAACGCAGCCTCGATTA	-0.143
AGAACGAGGGCACGCTGAGTTGATATCAGAGTAG	1.71
GCTAGCAGGCCATTTGGCTCACTCAATGACGGGC	-0.733
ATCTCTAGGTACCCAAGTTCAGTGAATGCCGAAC	2
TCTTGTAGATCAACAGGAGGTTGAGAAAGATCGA	-0.475

----------
test system: PPARg DBDmut:RXRa IVT, anti-PPARg (DBD mutation: PPARg1 K132A/R137A, NR concentration 270 nM, RXRa partner concentration 90 nM); assay: PBM binding z-score (relative to random genomic background probes); higher = stronger binding; sequences stand for … in GC…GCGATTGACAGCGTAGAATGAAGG
Measurement kind: PBM binding z-score

Sequence record	Measurement kind	Val
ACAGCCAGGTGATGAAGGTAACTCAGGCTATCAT	PBM binding z-score	-0.315
TCGTATAGGTAATACAGGTGAAAGTCGGCATCTA	PBM binding z-score	0.787
GCGACTGGTGCAAAGCAGGTTACCATAAGGTTGG	PBM binding z-score	-0.718
CCAACTAGGTCAAGGTCAAAGTCGGTTTGTGCCA	PBM binding z-score	1.26

----------
Examples of sequences with documented PBM binding z-score follow.
system: PPARg:RXRa 30nM:10nM, anti-RXR (NR concentration 30 nM, RXRa partner concentration 10 nM); assay: PBM binding z-score (relative to random genomic background probes); higher = stronger binding; sequences stand for … in GC…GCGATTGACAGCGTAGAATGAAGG
Measurement kind: PBM binding z-score

Sequence record	Val
GATACAGGGTCAGCTAGAGCCCAGAGTATGGAAA	0.917
TAGAGTAGGTTAGTCGGGGCATTCAGCCAACATA	0.884
TCTAGGAGGACACGAAAGGTCAGAGCTCGACATC	2.99
